Assay: Binding affinity to bacterial SleC assessed as dissociation constant by MST assay
Parameters: species or system Bacteria
recorded_endpoint: Kd (µM)
Kindly answer with a numeric value in µM, unit omitted.

Given the molecule Cl.NCc1ccc(-c2nc(-c3ccnc(Oc4ccc(C(F)(F)F)cc4)c3)no2)cc1 , what is its reported Kd?
12

###

This section presents compounds with their documented inhibition at 45 µM values.
Tested on: Clostridioides difficile
Assay: Antibacterial activity against Clostridium difficile ATTC43255 assessed as spore germination inhibition at 45 uM incubated for 60 mins by spectrometry relative to control
Format: functional
Settings: ATTC43255, 1 h

Worked cases, inhibition at 45 µM given:
{"query_smiles": "N#Cc1ccc(-c2nc(-c3ccc(OC4CCCC4)cc3)no2)cc1", "inhibition at 45 µM": "< 10%"}
{"query_smiles": "Oc1ccc(-c2nc(-c3ccc4c(c3)OCO4)no2)cc1", "inhibition at 45 µM": "< 10%"}
{"query_smiles": "N#Cc1ccc(Oc2ccc(-c3noc(-c4ccc(O)cc4)n3)cc2)cc1", "inhibition at 45 µM": "< 10%"}
{"query_smiles": "CCCCOc1ccc(-c2noc(-c3ccc(CNC(=O)OC(C)(C)C)cc3)n2)cc1", "inhibition at 45 µM": "< 10%"}

Given the compound Oc1ccc(-c2nc(N3CCN(c4ccccc4)CC3)no2)cc1 , what is its reported inhibition at 45 µM?
18%
